- measured target: HLA-A*11:01
- assay notes: IEDB peptide-MHC binding, purified MHC/direct/fluorescence; filed as Kd, often an IC50 or EC50 that approximates it; bounds were set here for any values at or beyond the usual limits of such assays
- condition details: source organism: Bacillus cereus 03BB108
measured quantity: pKd
Numbers only, as −log10 of the molar value.

Prompt: Give the reported value of pKd for this record: `SYMLQGLRK`
Response: 6.64

###

- measured target: HLA-B*38:01
- assay notes: IEDB peptide-MHC binding, purified MHC/direct/fluorescence; filed as Kd, often an IC50 or EC50 that approximates it; bounds were set here for any values at or beyond the usual limits of such assays
- condition details: source organism: Variola virus
pKd: −log10 of the molar value.
measured quantity: pKd

Prompt: Give the reported value of pKd for this record: `VIARTHTAL`
Response: ≤ 4.70

###

- measured target: HLA-A*11:01
- assay notes: IEDB peptide-MHC binding, purified MHC/direct/fluorescence; filed as Kd, often an IC50 or EC50 that approximates it; bounds were set here for any values at or beyond the usual limits of such assays
- condition details: source organism: Escherichia coli O157:H7
measured quantity: pKd
Answers are plain numbers, as −log10 of the molar value.

ATREGKHGK = 6.60

Prompt: Give the reported value of pKd for this record: `SVAPGTDFR`
Response: 8.74

###

- measured target: HLA-B*40:01
- assay notes: IEDB peptide-MHC binding, purified MHC/direct/fluorescence; filed as Kd, often an IC50 or EC50 that approximates it; bounds were set here for any values at or beyond the usual limits of such assays
- condition details: source organism: Giardia lamblia ATCC 50803
measured quantity: Kd

SHSIPNGLL = ≥ 20 µM

Please report Kd for every entry that follows.
1. ETESVNSNY
2. WLKEKHEEL

Response:
≥ 20 µM
≥ 20 µM

###

- measured target: HLA-B*46:01
- assay notes: IEDB peptide-MHC binding, purified MHC/competitive/fluorescence; filed as Kd, often an IC50 or EC50 that approximates it; bounds were set here for any values at or beyond the usual limits of such assays
- condition details: source organism: Escherichia coli 536
pKd: −log10 of the molar value.
measured quantity: pKd

Prompt: Give the reported value of pKd for this record: `QTDNDIWFW`
Response: ≤ 4.70

###

- measured target: HLA-A*02:01
- assay notes: IEDB peptide-MHC binding, purified MHC/competitive/fluorescence; filed as Kd, often an IC50 or EC50 that approximates it; bounds were set here for any values at or beyond the usual limits of such assays
- condition details: source organism: Yersinia pestis Nepal516
measured quantity: Kd (nM)
One number for each entry, in nM.

Prompt: Name the recorded Kd of `RQPLNIQAI` , assay system HLA-A*02:01.
Response: 305

###

- measured target: HLA-B*40:01
- assay notes: IEDB peptide-MHC binding, purified MHC/competitive/radioactivity; filed as Kd, often an IC50 or EC50 that approximates it; bounds were set here for any values at or beyond the usual limits of such assays
- condition details: source organism: Mammarenavirus guanaritoense
measured quantity: Kd (µM)
Give bare numbers, in µM.

Prompt: Give the reported value of Kd for this record: `PDFELLLSL`
Response: 14.6

###

- measured target: HLA-B*45:06
- assay notes: IEDB peptide-MHC binding, purified MHC/competitive/fluorescence; filed as Kd, often an IC50 or EC50 that approximates it; bounds were set here for any values at or beyond the usual limits of such assays
- condition details: source organism: Human alphaherpesvirus 1
pKd: −log10 of the molar value.
measured quantity: pKd

Prompt: Name the recorded pKd of `MPYAAHDPI` , assay system HLA-B*45:06.
Response: ≤ 5.30

Sourced from the Immune Epitope Database (IEDB)
